# Study System: Glutathione reductase (Saccharomyces cerevisiae S288c, UniProt P41921)
# Sequence (P41921 whole entry): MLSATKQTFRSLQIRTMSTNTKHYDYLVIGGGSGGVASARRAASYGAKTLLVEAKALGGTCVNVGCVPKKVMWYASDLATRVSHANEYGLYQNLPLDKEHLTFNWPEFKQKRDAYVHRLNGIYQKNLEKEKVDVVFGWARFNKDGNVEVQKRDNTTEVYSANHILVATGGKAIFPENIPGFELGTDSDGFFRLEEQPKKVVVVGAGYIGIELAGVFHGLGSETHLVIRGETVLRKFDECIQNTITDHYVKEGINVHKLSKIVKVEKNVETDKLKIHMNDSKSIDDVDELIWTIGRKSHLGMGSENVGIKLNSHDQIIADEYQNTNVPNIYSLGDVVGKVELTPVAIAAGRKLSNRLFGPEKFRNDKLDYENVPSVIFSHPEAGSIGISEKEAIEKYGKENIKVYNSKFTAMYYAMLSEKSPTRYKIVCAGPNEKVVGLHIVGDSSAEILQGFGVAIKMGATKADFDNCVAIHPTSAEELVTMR
# Procedure Summary: In vitro inhibitory activity against glutathione reductase (GR) from bakers yeast
Reported Endpoint: IC50 (µM)
Return type: number; implicit unit µM.

Briefly, IC50 measured for O=c1c(O)c(-c2ccc(O)c(O)c2)oc2cc(O)cc(O)c12 : 48.8

# credit: ChEMBL document CHEMBL1136757
